system: SK-OV-3; experiment: NCI tumour cell line growth inhibition, 48 h
The source made the active and inactive calls. No stated cut-off is given here; in the data, active = GI50 up to about 1.1 µM and inactive = higher.
Field: GI50. Provide a value for each of the compounds that follow.

Challenge: Write down measured GI50 (SK-OV-3) for this compound. Cn1c(=O)nc2n(-c3cccc(F)c3)c3ccccc3nc-2c1=O
Response given: > 100 µM (inactive)

Challenge: Write down measured GI50 (SK-OV-3) for this compound. CC1C=C(CCCCCCCCCCCC[C@@H](O)[C@@H]2CC[C@@H]([C@@H]3CC[C@@H](C(O)CCCCCCCCCCCCC4=C[C@H](C)OC4=O)O3)O2)C(=O)O1 (stereo partly drawn)
Response given: > 100 µM (inactive)

Challenge: Write down measured GI50 (SK-OV-3) for this compound. OC1(c2ccccc2)CC2CCC(C1)N2CCCC1(c2ccc(F)cc2)OCCO1 (stereo not drawn)
Response given: > 100 µM (inactive)

Challenge: Write down measured GI50 (SK-OV-3) for this compound. O=C1CC(=O)c2c(Cl)sc(Cl)c21
Response given: > 100 µM (inactive)

Challenge: Write down measured GI50 (SK-OV-3) for this compound. CC1CC(OP(=O)(OCc2ccccc2)OCc2ccccc2)[C@@H](OCc2ccccc2)C(OCc2ccccc2)C1OCc1ccccc1 (stereo partly drawn)
Response given: > 100 µM (inactive)

Challenge: Write down measured GI50 (SK-OV-3) for this compound. CN(C)S(=O)(=O)c1ccc(Nc2ccc(O)c3c2C(=O)c2c([N+](=O)[O-])ccc(O)c2C3=O)cc1
Response given: > 100 µM (inactive)

Challenge: Write down measured GI50 (SK-OV-3) for this compound. COC(=O)C1=CC2OC1(C)C1(CC1)C2=O (stereo not drawn)
Response given: 76.9 µM (inactive)

Challenge: Write down measured GI50 (SK-OV-3) for this compound. C=C1C(=O)O[C@@H]2C[C@@H](C)[C@@H]3C=CC(=O)[C@@]3(C)[C@@H](OC(=O)CC(=O)O[C@H]3[C@@H]4C(=C)C(=O)O[C@@H]4C[C@@H](C)[C@@H]4C=CC(=O)[C@]43C)[C@H]12
Response given: 0.256 µM (active)

Challenge: Write down measured GI50 (SK-OV-3) for this compound. CCOC(=O)/C(=C\c1c[nH]c2ccccc12)P(=O)(OCC)OCC
Response given: 30.5 µM (inactive)

Challenge: Write down measured GI50 (SK-OV-3) for this compound. Cc1oc(N)c(S(=O)(=O)c2ccc(Cl)cc2)c1C
Response given: 42.6 µM (inactive)

Challenge: Write down measured GI50 (SK-OV-3) for this compound. COC(=O)/C(=N\NC(N)=O)C(C(=O)C(=O)Nc1ccccc1OC)c1nc2ccc([N+](=O)[O-])cc2nc1O (stereo not drawn)
Response given: > 100 µM (inactive)

Challenge: Write down measured GI50 (SK-OV-3) for this compound. C=CCO/N=C(\OC(=O)c1ccc([N+](=O)[O-])cc1)c1ccccc1
Response given: > 100 µM (inactive)

Challenge: Write down measured GI50 (SK-OV-3) for this compound. O=C(CCC(=O)C1Cc2ccccc2C1=O)Nc1cccc(C(F)(F)F)c1 (stereo not drawn)
Response given: > 100 µM (inactive)

Challenge: Write down measured GI50 (SK-OV-3) for this compound. CNC(=S)N/N=C(C)\C(=N/NC(=S)NC)c1ccccc1
Response given: > 100 µM (inactive)

Challenge: Write down measured GI50 (SK-OV-3) for this compound. Clc1ccc2c(NC3CCC(N4CCCCC4)CC3)ccnc2c1 (stereo not drawn)
Response given: 57.9 µM (inactive)

Challenge: Write down measured GI50 (SK-OV-3) for this compound. O=C(NC1CCN(Cc2ccccc2)CC1)c1ccccc1I
Response given: 22.4 µM (inactive)

Challenge: Write down measured GI50 (SK-OV-3) for this compound. CCOc1ccccc1NC(=O)C(=O)CC(=O)c1c(C)[n+]([O-])c2ccccc2[n+]1[O-]
Response given: > 100 µM (inactive)

Challenge: Write down measured GI50 (SK-OV-3) for this compound. Cn1c(=O)c2c(O)cc(N)nc2n(C)c1=O
Response given: > 100 µM (inactive)
